Origin of the recorded values: paper PMC6738068

test: Plasma pharmacokinetics in phase 1 patients; type: in vivo, human; conditions: human, plasma, oral, Day 1; read-out: AUC0–24 h values associated with grade 3/4 neutropenia

- query_smiles: "COc1ccc2c(c1)[C@]1(C[C@H]1c1ccc3c(/C=C/c4ccc(CN5C[C@@H](C)O[C@@H](C)C5)cc4)n[nH]c3c1)C(=O)N2"
  AUC(0-t): "> 400 ng·h/mL"

----------
experiment: Plasma pharmacokinetics in phase 1 patients; assay type: in vivo, human; details: human, plasma, oral; 64 mg, Day 1; read-out: half-life (t1/2) (converted)

- query_smiles: "COc1ccc2c(c1)[C@]1(C[C@H]1c1ccc3c(/C=C/c4ccc(CN5C[C@@H](C)O[C@@H](C)C5)cc4)n[nH]c3c1)C(=O)N2"
  half-life [h]: 9

----------
Experiment: Plasma pharmacokinetics in phase 1 patients
Assay type: in vivo, human
Settings: human, plasma, oral, 64 mg, after 28 days of dosing; read-out: average Cmax
Experimental: In the expansion cohort, blood samples were collected on Day 1 for Cycle 0 and Day 28 of Cycle 1. Additional samples were drawn prior to dosing on Day 15 of subsequent cycles. Samples were analysed in accordance with all applicable United States Federal Drug Administration (FDA) and Organisation for Economic Co-operation and Development (OECD) regulations. […] The ionised compounds were detected using mass spectrometry. The lower limit of quantification was 20 pg/ml. […]
reported_property: Cmax (ng/mL)

- molecule: "COc1ccc2c(c1)[C@]1(C[C@H]1c1ccc3c(/C=C/c4ccc(CN5C[C@@H](C)O[C@@H](C)C5)cc4)n[nH]c3c1)C(=O)N2 [CFI-400945]"
  recorded_result: 44

----------
assay: Plasma pharmacokinetics in phase 1 patients; format: in vivo, human; conditions: human, plasma, oral, 64 mg, Day 1; read-out: AUC0–24 h
reported_property: AUC(0-t) (ng·h/mL)

- query_smiles: "COc1ccc2c(c1)[C@]1(C[C@H]1c1ccc3c(/C=C/c4ccc(CN5C[C@@H](C)O[C@@H](C)C5)cc4)n[nH]c3c1)C(=O)N2"
  recorded_result: 428

----------
assay: Plasma pharmacokinetics in phase 1 patients; assay type: in vivo, human; conditions: human, plasma, oral, Day 1; read-out: Cmax values associated with grade 3/4 neutropenia
reported_property: Cmax

- query_smiles: "COc1ccc2c(c1)[C@]1(C[C@H]1c1ccc3c(/C=C/c4ccc(CN5C[C@@H](C)O[C@@H](C)C5)cc4)n[nH]c3c1)C(=O)N2"
  recorded_result: "≥ 38 ng/mL"

----------
assay: Plasma pharmacokinetics in phase 1 patients; format: in vivo, human; settings: human, plasma, oral, 64 mg, Day 1; read-out: average Cmax

- molecule: "COc1ccc2c(c1)[C@]1(C[C@H]1c1ccc3c(/C=C/c4ccc(CN5C[C@@H](C)O[C@@H](C)C5)cc4)n[nH]c3c1)C(=O)N2 [CFI-400945]"
  Cmax, ng/mL: 37
